Listing of entries alongside the reported hERG current change (%, negative = inhibition) at 10uM.
- study system: human ether-à-go-go-related gene (hERG) potassium channel (human, UniProt Q12809)
- Sequence (Q12809 whole entry, looked up): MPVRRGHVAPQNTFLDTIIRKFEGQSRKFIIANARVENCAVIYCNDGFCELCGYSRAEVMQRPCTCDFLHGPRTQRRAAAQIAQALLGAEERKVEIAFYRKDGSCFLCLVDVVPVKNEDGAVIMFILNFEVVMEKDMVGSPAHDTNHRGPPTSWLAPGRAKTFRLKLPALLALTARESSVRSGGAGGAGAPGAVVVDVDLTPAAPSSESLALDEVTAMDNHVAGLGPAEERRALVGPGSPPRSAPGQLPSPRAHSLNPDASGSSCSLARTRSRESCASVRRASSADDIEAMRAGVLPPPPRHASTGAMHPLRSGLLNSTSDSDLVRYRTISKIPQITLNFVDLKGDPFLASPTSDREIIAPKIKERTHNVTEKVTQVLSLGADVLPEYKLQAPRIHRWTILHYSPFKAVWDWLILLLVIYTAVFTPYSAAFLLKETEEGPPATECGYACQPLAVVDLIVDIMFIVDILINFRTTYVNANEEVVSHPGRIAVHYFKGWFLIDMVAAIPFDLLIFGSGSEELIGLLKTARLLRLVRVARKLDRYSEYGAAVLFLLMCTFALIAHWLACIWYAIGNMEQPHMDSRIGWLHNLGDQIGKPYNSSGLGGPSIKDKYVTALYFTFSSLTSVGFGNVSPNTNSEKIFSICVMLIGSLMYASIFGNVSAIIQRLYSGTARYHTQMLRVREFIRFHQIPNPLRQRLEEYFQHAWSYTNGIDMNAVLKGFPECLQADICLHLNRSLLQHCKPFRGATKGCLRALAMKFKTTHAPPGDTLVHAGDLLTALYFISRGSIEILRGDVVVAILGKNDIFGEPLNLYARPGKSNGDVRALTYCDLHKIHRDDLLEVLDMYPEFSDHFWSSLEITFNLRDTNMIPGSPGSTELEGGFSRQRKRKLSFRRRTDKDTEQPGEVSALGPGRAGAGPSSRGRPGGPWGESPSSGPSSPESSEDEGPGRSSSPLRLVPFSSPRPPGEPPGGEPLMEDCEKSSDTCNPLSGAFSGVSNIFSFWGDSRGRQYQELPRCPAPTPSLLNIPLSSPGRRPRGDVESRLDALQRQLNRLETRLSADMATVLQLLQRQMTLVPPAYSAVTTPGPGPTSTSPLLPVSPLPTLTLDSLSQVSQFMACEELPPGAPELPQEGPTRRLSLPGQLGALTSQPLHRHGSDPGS
- assay: primary screen, population patch clamp on CHO cells stably expressing hERG; higher = less effect of the substance
In all, about 310,000 compounds went through this assay and about 14,000 (4.5%) showed an effect of 50% or more. The effect is printed as a negative number. The full list was thinned out, with strong results kept by preference.
observation type: hERG current change (%, negative = inhibition) at 10uM (%)

>  <compound>
Cc1cccc2[nH]c(CN(C)Cc3nc(CC4CC4)no3)nc12

>  <study system>
human ether-à-go-go-related gene (hERG) potassium channel (human, UniProt Q12809)

>  <quantitative result>
-11.8

$$$$
>  <compound>
CCC(=O)Nc1sc2c(c1C(=O)OC)CCN(Cc1ccccc1)C2.Cl

>  <study system>
human ether-à-go-go-related gene (hERG) potassium channel (human, UniProt Q12809)

>  <quantitative result>
-62.9

$$$$
>  <compound>
O=C(Nc1ccc(Cl)cc1)N1CCOCC1

>  <study system>
human ether-à-go-go-related gene (hERG) potassium channel (human, UniProt Q12809)

>  <quantitative result>
13.8

$$$$
>  <compound>
CCC(=O)c1c[nH]c(C(=O)NCc2ccccc2OC)c1

>  <study system>
human ether-à-go-go-related gene (hERG) potassium channel (human, UniProt Q12809)

>  <quantitative result>
-6.15

$$$$
>  <compound>
Cc1ccc(Cn2c(C(C)Nc3nc(-c4ccc(Cl)c([N+](=O)[O-])c4)cs3)nc3cc(C(F)(F)F)ccc32)cc1 (stereo not shown)

>  <study system>
human ether-à-go-go-related gene (hERG) potassium channel (human, UniProt Q12809)

>  <quantitative result>
5.46

$$$$
>  <compound>
Cc1ccc(-n2c(N)cc(=O)nc2SCC(=O)NC2CCCCC2)cc1C

>  <study system>
human ether-à-go-go-related gene (hERG) potassium channel (human, UniProt Q12809)

>  <quantitative result>
8.7

$$$$
>  <compound>
COC(=O)c1ccc(COc2ccc(F)cc2)o1

>  <study system>
human ether-à-go-go-related gene (hERG) potassium channel (human, UniProt Q12809);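 note: peak tail current of the secondary pulse compared with the same well before compound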

>  <quantitative result>
-27.4

$$$$
>  <compound>
O=C(NNC(=O)C1CC=CCC1)c1ccccc1O (stereo not shown)

>  <study system>
human ether-à-go-go-related gene (hERG) potassium channel (human, UniProt Q12809);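 note: peak tail current of the secondary pulse compared with the same well before compound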

>  <quantitative result>
-4.58

$$$$
>  <compound>
COC(=O)c1c(NC(=O)C(C)C)sc2c1CCN(Cc1ccccc1)C2.Cl

>  <study system>
human ether-à-go-go-related gene (hERG) potassium channel (human, UniProt Q12809);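 note: peak tail current of the secondary pulse compared with the same well before compound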

>  <quantitative result>
-38.4

$$$$
>  <compound>
CN1CCN(c2nc3c(c(=O)n(C)c(=O)n3C)n2Cc2ccccc2F)CC1

>  <study system>
human ether-à-go-go-related gene (hERG) potassium channel (human, UniProt Q12809);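 note: peak tail current of the secondary pulse compared with the same well before compound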

>  <quantitative result>
-4.91

$$$$

Measured values drawn from paper PMC4336329 for this set.
